Target: IL16_4, Q14005
Sequence (Q14005 1229-1329): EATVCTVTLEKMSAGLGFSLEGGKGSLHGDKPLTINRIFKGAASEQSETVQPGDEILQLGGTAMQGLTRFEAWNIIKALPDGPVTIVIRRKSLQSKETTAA
Test: holdup assay
Parameters: key: below the threshold = too weak to quantify, mostly under pKd 3.1 to 4
Settings: plain residues with an end cap or a label only (N-terminal biotin on a linker: ado-ado)
READOUT: pKd

Below are worked cases with known answers.
EALLQMESVA [CAVIN3, Q969G5] ... below the threshold
QSARLWETSI [ADAM22, Q9P0K1] ... 3.47
MLSKQSESAI [FLVCR1, Q9Y5Y0] ... below the threshold
GSGAVEMESV [AQP6, Q13520] ... below the threshold
NHSSSPETTA [TRMT13, Q9NUP7] ... below the threshold
SKSNFGSEPL [KIF17, Q9P2E2] ... below the threshold
VNKSKLLTDV [KCNA1, Q09470] ... below the threshold
SAAKVLTSMC [GHRHR, Q02643] ... below the threshold

The binder LPHGHSTTRV [NLGN4X, Q8N0W4] showed pKd equal to 3.74

The binder EVNETDDTKM [KCNJ1, P48048] showed pKd equal to 3.64
